# test_system: GAL4-PPAR γ chimeric nuclear receptor (human PPAR γ ligand binding domain) (Homo sapiens, UniProt P37231)
# assay_text: PPAR γ transactivation assay by transient gene transfer (GAL4-PPAR γ chimeric receptor, luciferase reporter, HEK293EBNA cells)
# cond: concentration showing 50% of efficacy (maximum activity rate relative to pioglitazone = 100%), 24 hr
Provide the recorded pEC50 for the entries that follow.
pEC50 is defined as minus the log10 of a concentration measured in mol/L.

Lookup: Look up pEC50 for this compound: C/C(=C1/c2ccc(Cn3c(CN(C)C)nc4ccccc43)cc2COc2cc(F)ccc21)c1noc(=O)[nH]1
Found: 7.47

Lookup: Look up pEC50 for this compound: CCCc1nc2ccccc2n1Cc1ccc2c(c1)COc1cc(F)c(F)cc1/C2=C(\C)c1noc(=O)[nH]1
Found: 7.94

Lookup: Look up pEC50 for this compound: CCCc1nc(C)nc(N2CCC2)c1Cc1ccc2c(c1)COc1cc(F)ccc1/C2=C(\C)c1noc(=O)[nH]1 [Compound 13g]
Found: 6.68

Lookup: Look up pEC50 for this compound: C/C(=C1/c2ccc(Cc3c(C4CC4)nc4c(Cl)cccn34)cc2COc2cc(F)ccc21)c1noc(=O)[nH]1
Found: 8.38

* * *

# test_system: GAL4-PPAR γ chimeric nuclear receptor (human PPAR γ ligand binding domain) (Homo sapiens)
# Sequence (P37231 174-475 isoform P37231-2): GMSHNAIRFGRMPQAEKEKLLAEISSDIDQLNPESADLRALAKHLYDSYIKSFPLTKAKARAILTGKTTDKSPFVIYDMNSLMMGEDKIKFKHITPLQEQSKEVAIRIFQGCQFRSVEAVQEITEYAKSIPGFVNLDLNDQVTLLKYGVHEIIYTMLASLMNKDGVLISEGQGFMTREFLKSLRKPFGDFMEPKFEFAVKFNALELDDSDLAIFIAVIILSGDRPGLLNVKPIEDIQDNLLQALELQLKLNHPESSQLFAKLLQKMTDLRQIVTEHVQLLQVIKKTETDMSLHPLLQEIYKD
# assay_text: PPAR γ transactivation assay by transient gene transfer (GAL4-PPAR γ chimeric receptor, luciferase reporter, HEK293EBNA cells)
# cond: concentration showing 50% of efficacy (maximum activity rate relative to pioglitazone = 100%), 24 hr
measured_property: pEC50
pEC50 is defined as minus the log10 of a concentration measured in mol/L.

Lookup: Look up pEC50 for this compound: [2H]C([2H])([2H])Oc1cccc2c1nc(COC)n2Cc1ccc2c(c1)COc1cc(F)ccc1/C2=C(\C)c1noc(=O)[nH]1
Found: 7.34

Lookup: Look up pEC50 for this compound: CCCc1nc2ccccc2n1Cc1ccc2c(c1)COc1cc(F)ccc1/C2=C(/c1noc(=O)[nH]1)C1CC1
Found: 7.26

Lookup: Look up pEC50 for this compound: C/C(=C1/c2ccc(Cc3c(C#N)nc4cc(F)ccn34)cc2COc2cc(F)ccc21)c1noc(=O)[nH]1 [Compound 14i]
Found: 6.62

Lookup: Look up pEC50 for this compound: CCCc1nc2ccccc2n1Cc1ccc2c(c1)COc1cc(F)ccc1/C2=C(\C)c1noc(=O)[nH]1
Found: 8.13

Lookup: Look up pEC50 for this compound: O=c1[nH]c(/C(=C2\c3ccc(Cc4c(C5CC5)nc5c(Cl)cccn45)cc3COc3cc(F)ccc32)C2CC2)no1 [Compound 12a]
Found: 7.73

Lookup: Look up pEC50 for this compound: C/C(=C1/c2ccc(Cc3c(C(C)C)nc4ccccn34)cc2COc2cc(F)ccc21)c1noc(=O)[nH]1
Found: 7.48

Lookup: Look up pEC50 for this compound: CC/C(=C1/c2ccc(Cn3c(COC)nc4ccccc43)cc2COc2cc(F)ccc21)c1noc(=O)[nH]1
Found: 7.42
